Cited source: PubChem BioAssay (NCI)

system: TK-10 renal; assay: NCI-60 one-dose screen, 48 h (100 = growth as untreated, 0 = no growth, -100 = all killed); settings: 10 µM unless noted
The panel holds about 83,000 compounds, 20% with a hit somewhere; the sample as a whole holds those more often.
experimental.endpoint: growth (%)
The figure you give is taken to be in %; do not add the unit.

Known growth results, listed for orientation:
[[record]]
compound = "O=C(O)C(=Cc1c2ccccc2cc2ccccc12)C(=O)O"
result = 93.3

[[record]]
compound = "COc1cccc2nc(Nc3ccc(NC(=O)c4ccc5ncccc5c4)cc3)ccc12"
result = 108

[[record]]
compound = "Clc1cccc(Cl)c1Cn1c(-c2cncs2)nc2ccccc21"
result = 85.1


# growth lookup, item O=C(c1ccncc1)N1N=C(c2ccc(Cl)cc2)CC1c1c[nH]c2ccccc12 (stereo not given) 107

Next compound: CC(=O)N1Cc2ccccc2C(C)Cc2cc(Cl)ccc21 (stereo not given) 98.4

What would you report for `CCCOC(=O)C1(O)CCCC1` ? 98.8

Cool, now `O=S(=O)(NCCCNc1nccc(-c2c(-c3ccc(O)cc3)nc3sccn23)n1)c1ccc(F)cc1` 26.6
